# System: HCT116 PIK3CA (+/−)
# test.details: Single agent proliferation assay (CellTiter-Glo, 72 h)
# Assay type: cell-based, human
# applied.conditions: 10% FBS
measure.name: IC50 (nM)
// return numeric value only (unit: nM, not printed)

## Task Name the recorded IC50 of the item `COc1ccc(-c2cc3c(C)nc(N)nc3n([C@H]3CC[C@H](OCCO)CC3)c2=O)cn1` in your answer.
## Result 420

----------
# Test system: HCT116 PIK3CA (+/−) cells
# test.details: Combination proliferation assay (Loewe/Bliss)
# Assay type: cell-based, human
# applied.conditions: Homo sapiens, HCT-116, read-out: IC50 (single agent, derived from combination assay plates)
measure.name: IC50 (nM)
# unit: nM | format: bare number

## Task Item `O=C(Nc1ccc2[nH]nc(-c3ccncc3)c2c1)[C@@H]1CCN(CC(=O)N2CCN(c3ccc(-c4ncccn4)cc3)CC2)C1` : provide IC50
## Result 30

----------
Field: IC50. Provide a value for each of the compounds that follow.
# Tested on: parental HCT116 cells
# test.details: Combination proliferation assay (Loewe/Bliss)
# Assay type: cell-based
# applied.conditions: Homo sapiens, HCT-116, 2.5% serum, mean of n=4 separate combinations, read-out: IC50 (single agent, derived from combination assay plates)
Reply numerically in nM, unit not repeated.

## Task Write down IC50 measured for item `CC(C)Nc1cc(-c2c[nH]c(C(=O)N[C@H](CO)c3cccc(Cl)c3)c2)c(Cl)cn1`
## Result 130

## Task Note down IC50 recorded for `O=C(Nc1ccc2[nH]nc(-c3ccncc3)c2c1)[C@@H]1CCN(CC(=O)N2CCN(c3ccc(-c4ncccn4)cc3)CC2)C1`
## Result 210

----------
# Test system: HCT116 PIK3CA (+/−)
# test.details: Single agent proliferation assay (CellTiter-Glo, 72 h)
# Type: cell-based, human
# applied.conditions: Homo sapiens, HCT-116, 72 h, 1% CS-FBS
Consider the following molecules; for each one, report its IC50.
Your answer should be a plain number; it is taken to be in µM.

## Task Fill in IC50 for record `O=C(Nc1ccc2[nH]nc(-c3ccncc3)c2c1)[C@@H]1CCN(CC(=O)N2CCN(c3ccc(-c4ncccn4)cc3)CC2)C1`
## Result 0.01

## Task Check the records and state IC50 for `CC(C)n1nc(-c2ccc3oc(N)nc3c2)c2c(N)ncnc21`
## Result 0.02

## Task For `Nc1cc(C(F)(F)F)c(-c2cc(N3CCOCC3)nc(N3CCOCC3)n2)cn1` , write its IC50.
## Result 1.03

## Task Please report IC50 for the following molecule: CC(=O)O[C@H]1C(=O)[C@@]2(C)[C@H]([C@H](OC(=O)c3ccccc3)[C@]3(O)C[C@H](OC(=O)[C@H](O)[C@@H](NC(=O)c4ccccc4)c4ccccc4)C(C)=C1C3(C)C)[C@]1(OC(C)=O)CO[C@@H]1C[C@@H]2O [Paclitaxel, reference compound]
## Result 0.003

## Task Give the reported value of IC50 for this record: `CC(C)Nc1cc(-c2c[nH]c(C(=O)N[C@H](CO)c3cccc(Cl)c3)c2)c(Cl)cn1`
## Result 0.01

This collection of values is drawn from patent US11007183B2.
